# test_protocol: folding stability dG unfold (combined trypsin and chymotrypsin); higher = more stable
value_type: folding stability dG unfold (kcal/mol)

[
  {
    "ordered_residues": "SAGGPPIKKAEIKEIYPEKGIINAIIELEDIPKPYEAIGIITDEKEGIIFVEIINPEGGPPLYFTIKASAGG [r13_337_TrMRF]",
    "unit_string": "kcal/mol",
    "qualifier_symbol": "=",
    "experimental_value": 0.972
  },
  {
    "ordered_residues": "SAGGKKKIKIIEKKKINGKTILKIEVDGKKIIIIKTPNKVYIFVIDKNGKKKVIEMSPEEALKKLIEKSAGG [r13_98_TrROS_Hall]",
    "unit_string": "kcal/mol",
    "qualifier_symbol": "=",
    "experimental_value": 3.59
  },
  {
    "ordered_residues": "SAGGSAGGSAGGMVITVPKENLKELIDALRKEGKARIVSVEEKDGLVTITVELEDEELESAGGSAGGSAGGS [r10_695_TrROS_Hall]",
    "unit_string": "kcal/mol",
    "qualifier_symbol": "=",
    "experimental_value": 2.95
  },
  {
    "ordered_residues": "SAGGSAGGSAGGSMKTITFTDPAEIAAAIEEAEKEGVEEVVLLTPEGKTRVIPKGVPLPSAGGSAGGSAGGS [r4_260_JUSTAS]",
    "unit_string": "kcal/mol",
    "qualifier_symbol": "=",
    "experimental_value": -0.00846
  },
  {
    "ordered_residues": "SAGGWYIRIKEIERNNDGVNIDIQIPDPDDPEFFENIAENLAQKLGMPKENIKIRIEPTPMPPDPEEPSAGG [r13_430_TrROS]",
    "unit_string": "kcal/mol",
    "qualifier_symbol": "=",
    "experimental_value": 0.247
  },
  {
    "ordered_residues": "SAGGSAGGSAGGEVIEIELPGKTKEEIEEAIKKLPENYKIEIKKDENGRIRVRIFRKEDLSAGGSAGGSAGG [r7_662_TrROS_Hall]",
    "unit_string": "kcal/mol",
    "qualifier_symbol": "=",
    "experimental_value": 1.44
  },
  {
    "ordered_residues": "SAGGSAGGSAGSSPSDLKVTLKVTLPDGTVLTVVMPAHATLDDFPADRPVTVTTLETKLESAGGSAGGSAGG [r11_997_JUSTAS]",
    "unit_string": "kcal/mol",
    "qualifier_symbol": "=",
    "experimental_value": 1.29
  },
  {
    "ordered_residues": "SAGGSAGGSAPRVRYRRRVLVYFPADGSVVPVVLEVSPGPLTLRLDLPAASFPPVRIAPLGSAGGSAGGSAG [r3_454_TrMRF]",
    "unit_string": "kcal/mol",
    "qualifier_symbol": "=",
    "experimental_value": 1.98
  },
  {
    "ordered_residues": "SAGGDPSATPVVVEFTLPDGARAVATTFPSGVVVARVFNPVTGRTTEVTVTVVPESATATVTVRPNPDSAGG [r13_822_TrMRF]",
    "unit_string": "kcal/mol",
    "qualifier_symbol": "=",
    "experimental_value": 1.02
  },
  {
    "ordered_residues": "SAGMTITTTTPAEAAALAEELAKKNPVLNVTITVVDPETGTVTTIPFAVPAPLPRPYFDPETGEVTLEGSAG [r5_870_TrMRF]",
    "unit_string": "kcal/mol",
    "qualifier_symbol": "=",
    "experimental_value": 0.779
  },
  {
    "ordered_residues": "SAGGSAGGSAGGGPSSMVTVETKEELLTLPNGEKLIKTTTTTKTPTATTTTTTVLPAELLSAGGSAGGSAGG [r7_682_JUSTAS]",
    "unit_string": "kcal/mol",
    "qualifier_symbol": "=",
    "experimental_value": 0.515
  },
  {
    "ordered_residues": "SAGGSAGGSAGMVIERPDDKVLVILGYDPEKGKVYVAVYDPKTGEVRFKEFDNLEDEIKDSAGGSAGGSAGG [r17_300_TrMRF]",
    "unit_string": "kcal/mol",
    "qualifier_symbol": "=",
    "experimental_value": 1.91
  },
  {
    "ordered_residues": "MKIRVEITVRNPDGEELKIEIVLSLEELEELRKEGKPLTLEELKALIEERARKLAEELDLEVEIKIVEIEPS [r1_174_TrROS_Hall]",
    "unit_string": "kcal/mol",
    "qualifier_symbol": ">",
    "experimental_value": 6
  },
  {
    "ordered_residues": "SAGGSAGGSAGGPRVGVVRELPDDSRVALLEIEETLTSPGPDGTPRSRPFRAVFVVPLGSAGGSAGGSAGGS [r10_718_TrMRF]",
    "unit_string": "kcal/mol",
    "qualifier_symbol": "=",
    "experimental_value": -0.16
  }
]
